Reported koff by item:
# MEASUREMENT_TARGET: T1, biotinylated CD3 epsilon:delta heterodimer protein (Amsbio AMS.CDD-H52WO) (Homo sapiens (Human), UniProt P07766 23-126; P04234 22-105)
# T1 construct: also called CD3 heterodimer
# PROTOCOL: BLI (Octet), CD3 on SA sensor, Fab analyte;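 further: biolayer interferometry with biotinylated CD3 epsilon:delta captured on streptavidin sensors, Fab analyte at several concentrations up to 300 nM, 100 s association then 300 s dissociation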
Report the figure in s⁻¹ without appending any unit label.

[[record]]
binder = "huSP34.2.1 Fab-HF (Fab, V domains shown, also called HC2+LC1) VH: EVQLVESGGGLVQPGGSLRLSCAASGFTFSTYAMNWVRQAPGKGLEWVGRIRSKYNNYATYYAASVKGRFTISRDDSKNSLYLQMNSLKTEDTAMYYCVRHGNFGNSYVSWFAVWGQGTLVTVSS VL: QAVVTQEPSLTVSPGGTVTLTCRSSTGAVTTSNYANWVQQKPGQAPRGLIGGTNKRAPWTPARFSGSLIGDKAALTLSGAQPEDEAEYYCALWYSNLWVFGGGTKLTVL"
parameter = "koff"
test_value = 0.00596


Switching to the query record.
Task: Please give the documented koff of huSP34.4.5 Fab-HF (Fab, V domains shown, also called HC4+LC5) VH: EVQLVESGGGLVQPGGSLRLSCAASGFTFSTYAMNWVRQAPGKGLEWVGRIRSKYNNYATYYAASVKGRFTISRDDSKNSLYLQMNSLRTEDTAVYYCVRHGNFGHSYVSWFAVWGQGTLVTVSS VL: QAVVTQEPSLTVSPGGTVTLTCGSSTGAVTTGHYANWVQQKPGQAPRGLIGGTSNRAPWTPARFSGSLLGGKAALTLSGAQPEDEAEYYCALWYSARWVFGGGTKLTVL
Result: 0.0506
